Source listed as patent US20050250677A1.

# Test system: HEL cells
# conditionDetails: anti-VZV table
measuredMetric: MTC (HEL)

molecule: CCCCc1ccc(CN2CCN(Cc3c(O)cc4c(c3O)-c3cc(ccc3O)C3NC(=O)C5NC(=O)C6NC(=O)C(Cc7ccc(c(Cl)c7)Oc7cc5cc(c7O)Oc5ccc(cc5Cl)C(O)C(NC3=O)C(=O)NC4C(=O)NC)NC(=O)C(N)c3ccc(O)c(c3)Oc3cc(O)cc6c3)CC2)cc1 (stereo not shown)
MTC (HEL): 20 to 50 µM

**Query** Tell me measured MTC (HEL) for CCCCc1ccc(CNCC(=O)N2CCN(Cc3c(O)cc4c(c3O)-c3cc(ccc3O)C3NC(=O)C5NC(=O)C6NC(=O)C(Cc7ccc(c(Cl)c7)Oc7cc5cc(c7O)Oc5ccc(cc5Cl)C(O)C(NC3=O)C(=O)NC4C(=O)O)NC(=O)C(N)c3ccc(O)c(c3)Oc3cc(O)cc6c3)CC2)cc1 (stereo not shown) please.
**Result** 50 µM

**Query** Tell me measured MTC (HEL) for CCCCCCCCCC[N+](C)(C)CCCNCc1c(O)cc2c(c1O)-c1cc(ccc1O)C1NC(=O)C3NC(=O)C4NC(=O)C(Cc5ccc(c(Cl)c5)Oc5cc3cc(c5O)Oc3ccc(cc3Cl)C(O)C(NC1=O)C(=O)NC2C(=O)O)NC(=O)C(N)c1ccc(O)c(c1)Oc1cc(O)cc4c1 (stereo not shown) please.
**Result** 5 to 50 µM

**Query** Tell me measured MTC (HEL) for O=C1NC2C(=O)NC3C(=O)NC4C(=O)NC(C(=O)NC(C(=O)O)c5cc(O)cc(O)c5-c5cc4ccc5O)C(O)c4ccc(c(Cl)c4)Oc4cc3cc(c4O)Oc3ccc(cc3Cl)CC1NC(=O)C(NCc1ccc(-c3ccccc3)cc1)c1ccc(O)c(c1)Oc1cc(O)cc2c1 (stereo not shown) please.
**Result** 20 to 50 µM

**Query** Tell me measured MTC (HEL) for NC1C(=O)NC2Cc3ccc(c(Cl)c3)Oc3cc4cc(c3OCc3ccc(-c5ccccc5)cc3)Oc3ccc(cc3Cl)C(O)C3NC(=O)C(NC(=O)C4NC(=O)C(NC2=O)c2cc(O)cc(c2)Oc2cc1ccc2O)c1ccc(O)c(c1)-c1c(O)cc(O)cc1C(C(=O)O)NC3=O (stereo not shown) please.
**Result** 20 µM
